- Test system: Zika virus
- protocol.details: Antiviral activity against Zika virus infected in African green monkey Vero cells assessed as inhibition of viral replication at 20 uM measured after 4 days relative to control
- Format: functional
- experimental.parameters: Zika virus, Vero, 96 h, time 4 day
// FALSE strictly below 60% in inhibition at 20 µM; TRUE otherwise

Reference set, count: 5
CC(C)=C1C(=O)C[C@@]2(C)C/C=C(\C)CC/C=C(\C=O)CC[C@H]12
FALSE
CC(C)=C1[C@H](O)C[C@@]2(C)C[C@H]3O[C@]3(C)CC[C@H]3O[C@]3(C)CC[C@H]12
FALSE
CC(C)=C1[C@H](O)C[C@@]2(C)C/C=C(\C)CC[C@H]3O[C@]3(C)CC[C@H]12
FALSE
C[C@H]1/C=C/[C@@]2(C)CC[C@@H](C(C)(C)O)[C@@H]2[C@@H](O)C[C@](C)(O)/C=C/C1
FALSE
CC(C)=C1[C@H]2CC[C@@]3(C)O[C@@H]3CC/C(C)=C/C[C@]2(C)C[C@@H]1O
TRUE

inhibition at 20 µM >= 60% for CC(=O)O[C@@H]1C[C@@]2(C)C/C=C(\C)CC/C=C(\C)CC[C@@H]2C1=C(C)C ?
TRUE

inhibition at 20 µM >= 60% for NC(=O)c1ncn([C@@H]2O[C@H](CO)[C@@H](O)[C@H]2O)n1 ?
TRUE

inhibition at 20 µM >= 60% for CC1=CC[C@@H](O)[C@]2(C)CC[C@@H]3C(=C(C)C)C(=O)C[C@@]3(C)C[C@@H]12 ?
TRUE

inhibition at 20 µM >= 60% for CC(=O)OC/C1=C\CC/C(C)=C/C[C@]2(C)CC(=O)C(=C(C)C)[C@H]2CC1 ?
FALSE

inhibition at 20 µM >= 60% for CC(C)=C1[C@H]2CC/C(C)=C/CC/C(C)=C/C[C@]2(C)C[C@@H]1O ?
FALSE

---

- protocol.details: Cytotoxicity against African green monkey Vero cells by MTT assay
- Format: cell-based
- experimental.parameters: chlorocebus sabaeus, Vero cells
Lab note: anything with CC50 below 600 µM is marked Y; values at 600 µM or higher are marked N.

Reference set, count: 2
COC1(C)CC[C@@H](O)[C@]2(C)CC[C@@H]3C(=C(C)C)C(=O)C[C@@]3(C)C[C@@H]12 (relative stereo; 18)
N
CC(C)=C1C(=O)C[C@@]2(C)C/C=C(\C)CC[C@H]3O[C@]3(C)CC[C@H]12
Y

Bench note: check whether CC(=O)O[C@@H]1C[C@@]2(C)C/C=C(\C)CC/C=C(\C)CC[C@@H]2C1=C(C)C shows CC50 below 600 µM
Y

Bench note: check whether C[C@H]1/C=C/[C@@]2(C)CC[C@@H](C(C)(C)O)[C@@H]2[C@@H](O)C[C@](C)(O)/C=C/C1 shows CC50 below 600 µM
Y

Bench note: check whether CC(C)=C1[C@H](O)C[C@@]2(C)C/C=C(\C)CC[C@H]3O[C@]3(C)CC[C@H]12 shows CC50 below 600 µM
Y

Bench note: check whether CC(C)=C1C(=O)C[C@@]2(C)C[C@H]3O[C@]3(C)CC/C=C(\C)CC[C@H]12 shows CC50 below 600 µM
Y

Bench note: check whether CC(=O)OC/C1=C\CC/C(C)=C/C[C@]2(C)CC(=O)C(=C(C)C)[C@H]2CC1 shows CC50 below 600 µM
Y

Bench note: check whether CC(C)=C1[C@H]2CC/C(C)=C/CC/C(C)=C/C[C@]2(C)C[C@@H]1O shows CC50 below 600 µM
Y

Bench note: check whether CC(C)=C1C(=O)C[C@@]2(C)C/C=C(\CO)CC[C@H]3O[C@]3(C)CC[C@H]12 shows CC50 below 600 µM
N

Bench note: check whether CC1=CC[C@@H](O)[C@]2(C)CC[C@@H]3C(=C(C)C)C(=O)C[C@@]3(C)C[C@@H]12 shows CC50 below 600 µM
Y

Bench note: check whether CC(C)=C1[C@H](O)C[C@@]2(C)C[C@H]3O[C@]3(C)CC[C@H]3O[C@]3(C)CC[C@H]12 shows CC50 below 600 µM
N

---

// values below are reported selectivity ratio
- protocol.details: Selectivity index, ratio of CC50 for African green monkey Vero cells to EC50 for CHIKV
- Format: toxicity
- experimental.parameters: read-out: Ratio CC50/EC50
Keep it simple and answer with nothing but the number.

CC(C)=C1[C@H]2CC[C@@]3(C)O[C@@H]3CC[C@@]3(C)O[C@@H]3C[C@]2(C)C[C@@H]1O
1400
CC(=O)O[C@@H]1C[C@@]2(C)C/C=C(\C)CC/C=C(\C)CC[C@@H]2C1=C(C)C
83
CC(C)=C1C(=O)C[C@@]2(C)C[C@H]3O[C@]3(C)CC/C=C(\C)CC[C@H]12
50
CC(C)=C1C(=O)C[C@@]2(C)C/C=C(\CO)CC[C@H]3O[C@]3(C)CC[C@H]12
61

Consider the record given below.
Param item = CC(C)=C1C(=O)C[C@@]2(C)C/C=C(\C)CC[C@H]3O[C@]3(C)CC[C@H]12 ; retrieve measured selectivity ratio.
440

---

- Tested on: Zika virus
- protocol.details: Antiviral activity against Zika virus infected in African green monkey Vero cells assessed as inhibition of viral replication at 20 uM measured after 4 days relative to control
- Format: functional
- experimental.parameters: Zika virus, Vero, 96 h, time 4 day
// NO strictly below 60% in inhibition at 20 µM; YES otherwise

Reference set, count: 5
CC(C)=C1C(=O)C[C@@]2(C)C/C=C(\C=O)CC[C@H]3O[C@]3(C)CC[C@H]12
YES
CC(C)=C1C(=O)C[C@@]2(C)C/C=C(\C)CC/C=C(\C)CC[C@H]12 [DOLABELLANE]
NO
CC(C)=C1C(=O)C[C@@]2(C)C[C@H]3O[C@]3(C)CC[C@H]3O[C@]3(C)CC[C@H]12
NO
CC(C)=C1C(=O)C[C@@]2(C)C[C@H]3O[C@]3(C)CC/C=C(\C)CC[C@H]12
YES
CC(C)=C1[C@H]2CC[C@@]3(C)O[C@@H]3CC[C@@]3(C)O[C@@H]3C[C@]2(C)C[C@@H]1O
YES

# input for lookup
inhibition at 20 µM >= 60% for CC(C)=C1C(=O)C[C@@]2(C)C/C=C(\C)CC[C@H]3O[C@]3(C)CC[C@H]12 ?
NO

---

- protocol.details: Selectivity index, ratio of CC50 for African green monkey Vero cells to EC50 for Zika virus
- Type: toxicity
- experimental.parameters: read-out: Ratio CC50/EC50
// values below are reported selectivity ratio

CC1=CC[C@@H](O)[C@]2(C)CC[C@@H]3C(=C(C)C)C(=O)C[C@@]3(C)C[C@@H]12
280
CC(C)=C1[C@H]2CC[C@@]3(C)O[C@@H]3CC/C(C)=C/C[C@]2(C)C[C@@H]1O
480
CC(C)=C1C(=O)C[C@@]2(C)C/C=C(\C=O)CC[C@H]3O[C@]3(C)CC[C@H]12
830
COC1(C)CC[C@@H](O)[C@]2(C)CC[C@@H]3C(=C(C)C)C(=O)C[C@@]3(C)C[C@@H]12 (relative stereo; 18)
410

Param item = CC(C)=C1[C@H]2CC[C@@]3(C)O[C@@H]3CC[C@@]3(C)O[C@@H]3C[C@]2(C)C[C@@H]1O ; retrieve measured selectivity ratio.
110

---

- protocol.details: Cytotoxicity against African green monkey Vero cells by MTT assay
- Format: cell-based
- experimental.parameters: chlorocebus sabaeus, Vero cells
readout.type: CC50 (µM)
Answer with a number only, understood to be in µM.

Param item = CC(C)=C1C(=O)C[C@@]2(C)C/C=C(\C)CC/C=C(\C)CC[C@H]12 [DOLABELLANE] ; retrieve measured CC50.
150

Param item = CC(C)=C1[C@H]2CC[C@@]3(C)O[C@@H]3CC[C@@]3(C)O[C@@H]3C[C@]2(C)C[C@@H]1O ; retrieve measured CC50.
1000

Param item = CC(C)=C1[C@H]2CC[C@@]3(C)O[C@@H]3CC/C(C)=C/C[C@]2(C)C[C@@H]1O ; retrieve measured CC50.
580

Param item = CC(C)=C1C(=O)C[C@@]2(C)C[C@H]3O[C@]3(C)CC[C@H]3O[C@]3(C)CC[C@H]12 ; retrieve measured CC50.
960

Param item = CC(C)=C1C(=O)C[C@@]2(C)C/C=C(\C)CC/C=C(\C=O)CC[C@H]12 ; retrieve measured CC50.
100

Param item = C=C(C)C1=CC[C@@]2(C)C/C=C(\C)CC/C=C(\CO)CC[C@H]12 ; retrieve measured CC50.
600

Param item = CC(C)=C1C(=O)C[C@@]2(C)C/C=C(\C=O)CC[C@H]3O[C@]3(C)CC[C@H]12 ; retrieve measured CC50.
750

Param item = C=C(C)C1=CC[C@@]2(C)C[C@H]3O[C@]3(C)CC[C@H]3O[C@]3(C)CC[C@H]12 ; retrieve measured CC50.
480
